Each recorded value in this set is attributed to the emibetuzumab library of Makowski et al. (2022).

B1: VH:VL chains; a variant is named by its letters at X, in order (parent)
chain 1: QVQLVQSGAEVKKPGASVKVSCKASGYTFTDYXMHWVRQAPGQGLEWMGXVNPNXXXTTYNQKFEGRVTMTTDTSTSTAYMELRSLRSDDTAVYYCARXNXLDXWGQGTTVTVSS
chain 2: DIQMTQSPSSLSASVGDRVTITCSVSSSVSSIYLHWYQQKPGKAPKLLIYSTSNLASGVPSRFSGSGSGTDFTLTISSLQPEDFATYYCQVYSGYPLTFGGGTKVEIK

# Variants of: B1
# assay.text: yeast display scFab, FACS + sequencing
# condition.set: with MET
The list shows a part of the results. How many sequences the whole screen found active is unknown.
recorded.metric: antigen binding call

>  <variant.designation>
YKARGAAD

>  <recorded.metric>
antigen binding call

>  <reported.result>
binds

$$$$
>  <variant.designation>
VRRTDFVA

>  <recorded.metric>
antigen binding call

>  <reported.result>
no binding

$$$$
>  <variant.designation>
DEKKADWA

>  <recorded.metric>
antigen binding call

>  <reported.result>
no binding

$$$$
>  <variant.designation>
YARADSSD

>  <recorded.metric>
antigen binding call

>  <reported.result>
no binding

$$$$
>  <variant.designation>
DKERGDLV

>  <recorded.metric>
antigen binding call

>  <reported.result>
no binding

$$$$
>  <variant.designation>
VEAGDAGD

>  <recorded.metric>
antigen binding call

>  <reported.result>
no binding

$$$$
>  <variant.designation>
YTTGGDGA

>  <recorded.metric>
antigen binding call

>  <reported.result>
no binding

$$$$
>  <variant.designation>
YKAGDAGD

>  <recorded.metric>
antigen binding call

>  <reported.result>
binds

$$$$
>  <variant.designation>
VAATADVA

>  <recorded.metric>
antigen binding call

>  <reported.result>
no binding

$$$$
>  <variant.designation>
VATRAVGA

>  <recorded.metric>
antigen binding call

>  <reported.result>
no binding

$$$$
>  <variant.designation>
VTTRAASV

>  <recorded.metric>
antigen binding call

>  <reported.result>
no binding

$$$$
>  <variant.designation>
DAGAADVV

>  <recorded.metric>
antigen binding call

>  <reported.result>
no binding

$$$$
>  <variant.designation>
YRGRGFLV

>  <recorded.metric>
antigen binding call

>  <reported.result>
binds

$$$$
>  <variant.designation>
YATKGFGD

>  <recorded.metric>
antigen binding call

>  <reported.result>
no binding

$$$$
>  <variant.designation>
VEGTGAGD

>  <recorded.metric>
antigen binding call

>  <reported.result>
no binding

$$$$
>  <variant.designation>
VKRGSSSD

>  <recorded.metric>
antigen binding call

>  <reported.result>
binds

$$$$
>  <variant.designation>
YRGKGAAS

>  <recorded.metric>
antigen binding call

>  <reported.result>
binds

$$$$
>  <variant.designation>
YTGTSDLA

>  <recorded.metric>
antigen binding call

>  <reported.result>
no binding

$$$$
>  <variant.designation>
VATGSSGA

>  <recorded.metric>
antigen binding call

>  <reported.result>
no binding

$$$$
>  <variant.designation>
FRGKGAGY

>  <recorded.metric>
antigen binding call

>  <reported.result>
binds

$$$$
>  <variant.designation>
ATGRAAGD

>  <recorded.metric>
antigen binding call

>  <reported.result>
no binding

$$$$
>  <variant.designation>
FTAGGAAD

>  <recorded.metric>
antigen binding call

>  <reported.result>
no binding

$$$$
>  <variant.designation>
YTKRSSGA

>  <recorded.metric>
antigen binding call

>  <reported.result>
no binding

$$$$
>  <variant.designation>
FTRGADAV

>  <recorded.metric>
antigen binding call

>  <reported.result>
no binding

$$$$
>  <variant.designation>
YKAKGAGD

>  <recorded.metric>
antigen binding call

>  <reported.result>
binds

$$$$
>  <variant.designation>
FRGKGASS

>  <recorded.metric>
antigen binding call

>  <reported.result>
binds

$$$$
